B1: glmS ribozyme (parent)
chain: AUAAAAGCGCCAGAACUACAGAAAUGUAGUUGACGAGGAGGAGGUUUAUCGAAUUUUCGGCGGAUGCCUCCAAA

variants of: B1; experiment: self-cleavage kobs at 640 uM GlcN6P; higher = faster cleavage; RNA array; details: with glucosamine-6-phosphate
Variants at the floor of the assay were thinned out.
# maps each entry to its self-cleavage kobs at 640 uM GlcN6P
property: self-cleavage kobs at 640 uM GlcN6P

- A14C G38U G44U C68G: < 1e-05 s⁻¹
- A33U C67G: < 1e-05 s⁻¹
- G9U A15U: < 1e-05 s⁻¹
- U45G G60A C67G: < 1e-05 s⁻¹
- G7A A48C: < 1e-05 s⁻¹
- U46G U47C: 0.00158 s⁻¹
- A12U G44A: 0.000437 s⁻¹
- A15G U45G: 0.0024 s⁻¹
- G29U U54A U65A: 0.000149 s⁻¹
- G7C C8A U30C A33C: < 1e-05 s⁻¹
- G32A A53G: 0.00114 s⁻¹
- G44U U46G: 2.83e-05 s⁻¹
- C11U C16U C71G: 6.83e-05 s⁻¹
- G43C G44U G60U: < 1e-05 s⁻¹
- U49G C67U: 7.24e-05 s⁻¹
- A53G U54G: 0.00511 s⁻¹
- A14U U55G: 0.00176 s⁻¹
- C34U C61G: < 1e-05 s⁻¹
- G7C C10G: < 1e-05 s⁻¹
- A1U U2G A3G A5U A14C U69C: 0.000257 s⁻¹
- G41U A48U A64C: < 1e-05 s⁻¹
- A6U G13U: < 1e-05 s⁻¹
- A39U U56A A72U: 0.000916 s⁻¹
- C11U U46C: 3.45e-05 s⁻¹
- G9C G51C: < 1e-05 s⁻¹
- A6C C50G C70U: 0.000347 s⁻¹
- A6C C11A U47C: < 1e-05 s⁻¹
- C34A C61U U65C U69G: < 1e-05 s⁻¹
- G13U C61U C70G: < 1e-05 s⁻¹
- A6G G9C G60C G63A C68U: < 1e-05 s⁻¹
- A15C G62A: < 1e-05 s⁻¹
- G29U C58G: 3.31e-05 s⁻¹
- A15C U54C G66U C70U: 7.59e-05 s⁻¹
- C16A U30G: 6.82e-05 s⁻¹
- C10U C11U G13A: < 1e-05 s⁻¹
- A12G U69C: 0.000152 s⁻¹
- A6U C67U C70G: 0.000211 s⁻¹
- G9U G51A: < 1e-05 s⁻¹
- G13A C16G G59C C68A: 0.000133 s⁻¹
- A6G G35A: < 1e-05 s⁻¹
- U47A U56C: 0.000703 s⁻¹
- C34G G63C: < 1e-05 s⁻¹
